# experimental.details: Kinetic parameter of antibody 48G7 in 10 mM Tris HCl, 50 mM NaCl, pH 8.27
quantity.measured: k cat

[[record]]
smiles_text = "COC(=O)CCCOC(=O)Oc1ccc([N+](=O)[O-])cc1"
quantity_measured = "k cat"
assay_value = "0.437 s⁻¹"

[[record]]
smiles_text = "COC(=O)Oc1ccc([N+](=O)[O-])cc1"
quantity_measured = "k cat"
assay_value = "0.123 s⁻¹"

[[record]]
smiles_text = "COC(=O)CCCC(=O)Oc1ccc([N+](=O)[O-])cc1"
quantity_measured = "k cat"
assay_value = "0.367 s⁻¹"

[[record]]
smiles_text = "CC(=O)Oc1ccc([N+](=O)[O-])cc1"
quantity_measured = "k cat"
assay_value = "0.0633 s⁻¹"


Cited source for all entries: ChEMBL document CHEMBL1127186
